assayMethodText: Dose normalized volume of distribution at steady state in Sprague-Dawley rat at 1 mg/kg, iv and 5 mg/kg, po
Type: ADME, organism-based
details: in vivo, read-out: Vdss/dose
Define the label as Fulfilled when Vd is strictly less than 3 L/kg and as Not fulfilled in all remaining cases.

1. N#CCCN1CCC(n2cnc3cnc4[nH]ccc4c32)CC1 | Fulfilled
2. CC(C)(C)OC(=O)N[C@@H]1CC[C@@H](n2cnc3cnc4[nH]ccc4c32)C1 | Fulfilled
3. c1ccc(CN2CCC(n3cnc4cnc5[nH]ccc5c43)CC2)cc1 | Not fulfilled
4. N#CCCN[C@H]1CC[C@H](n2cnc3cnc4[nH]ccc4c32)CC1 | Not fulfilled
5. CS(=O)(=O)N1CCC(n2cnc3cnc4[nH]ccc4c32)CC1 | Fulfilled
6. CC1(n2cnc3cnc4[nH]ccc4c32)CCN(S(C)(=O)=O)CC1 | Fulfilled
7. N[C@H]1CC[C@H](n2cnc3cnc4[nH]ccc4c32)CC1 | Not fulfilled
8. N#CCC(=O)N1CCC[C@@H](n2cnc3cnc4[nH]ccc4c32)C1 | Fulfilled

====

assayMethodText: Apparent permeability from apical to basal side of MDCK cells at 10 uM
Type: ADME, cell-based, Canis lupus familiaris
details: dog
Some molecules, each annotated with its measured Papp A→B at 10 µM.
measurementKind: Papp A→B at 10 µM (nm/s)

1. N[C@H]1CC[C@H](n2cnc3cnc4[nH]ccc4c32)CC1 | 2
2. N#CCCN[C@H]1CC[C@H](n2cnc3cnc4[nH]ccc4c32)CC1 | 15
3. CS(=O)(=O)N1CCC(n2cnc3cnc4[nH]ccc4c32)CC1 | 12
4. N#CCC(=O)N1CCC[C@@H](n2cnc3cnc4[nH]ccc4c32)C1 | 3
5. c1ccc(CN2CCC(n3cnc4cnc5[nH]ccc5c43)CC2)cc1 | 323
6. CC(C)(C)OC(=O)N[C@@H]1CC[C@@H](n2cnc3cnc4[nH]ccc4c32)C1 | 112
7. N#CCCN1CCC(n2cnc3cnc4[nH]ccc4c32)CC1 | 82
8. CC1(n2cnc3cnc4[nH]ccc4c32)CCN(S(C)(=O)=O)CC1 | 25

====

assayMethodText: Lipophilicity, log D of the compound after 1 hr by LC/MS/MS analysis at pH 7.2
Type: physicochemical
details: buffer
Some compounds, each annotated with its measured logD at 1 h.
measurementKind: logD at 1 h

1. CC(C)(C)OC(=O)N[C@@H]1CC[C@@H](n2cnc3cnc4[nH]ccc4c32)C1 | 2.99
2. N[C@H]1CC[C@H](n2cnc3cnc4[nH]ccc4c32)CC1 | -0.44
3. N#CCCN1CCC(n2cnc3cnc4[nH]ccc4c32)CC1 | 1.72
4. COC(=O)N[C@H]1CC[C@H](n2cnc3cnc4[nH]ccc4c32)CC1 | 1.9
5. CC1(n2cnc3cnc4[nH]ccc4c32)CCN(S(C)(=O)=O)CC1 | 1.14
6. CS(=O)(=O)N1CCC(n2cnc3cnc4[nH]ccc4c32)CC1 | 1.04
7. N#CCCN[C@H]1CC[C@H](n2cnc3cnc4[nH]ccc4c32)CC1 | 0.97
8. c1ccc(CN2CCC(n3cnc4cnc5[nH]ccc5c43)CC2)cc1 | 2.9
9. COC(=O)N[C@@H]1CC[C@@H](n2cnc3cnc4[nH]ccc4c32)C1 (racemic) | 1.2
10. CC(C)(C)OC(=O)N[C@H]1CC[C@H](n2cnc3cnc4[nH]ccc4c32)CC1 | 3.2
11. N#CCC(=O)N1CCC[C@@H](n2cnc3cnc4[nH]ccc4c32)C1 | 0.39
